- TARGET OR SYSTEM: Induced myeloid leukemia cell differentiation protein Mcl-1 (Homo sapiens)
- Sequence (Q07820 whole entry): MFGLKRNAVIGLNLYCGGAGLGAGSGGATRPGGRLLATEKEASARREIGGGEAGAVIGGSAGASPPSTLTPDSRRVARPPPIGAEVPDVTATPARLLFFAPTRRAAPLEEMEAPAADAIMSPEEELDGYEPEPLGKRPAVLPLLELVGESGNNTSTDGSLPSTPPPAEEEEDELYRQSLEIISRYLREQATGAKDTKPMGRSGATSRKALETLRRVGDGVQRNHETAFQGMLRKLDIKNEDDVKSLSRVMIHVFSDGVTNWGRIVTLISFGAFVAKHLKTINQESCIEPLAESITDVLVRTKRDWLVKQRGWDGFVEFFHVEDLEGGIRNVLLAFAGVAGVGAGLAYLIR
- EXPERIMENT NOTES: Binding affinity to Mcl-1 (unknown origin) pre-incubated for 30 mins followed by addition FAM-peptide further incubated for 20 mins by fluorescence polarization-based binding assay
- SETTINGS: read-out: Ki
Would you mind telling me the reported Ki of each entry?
Your reply should be a number followed by the unit it is expressed in.

Recorded Ki for Cc1cc(OCCCc2c(C(=O)O)n(CCN3CCOCC3)c3c(-c4ccccc4Cn4cc(CCNC(=O)c5ccccc5C(F)(F)F)c5ccccc54)cccc23)cc(C)c1Cl , please?
56 nM

Recorded Ki for Cc1cc(OCCCc2c(C(=O)O)n(CCN3CCOCC3)c3c(-c4ccccc4Cn4ccc5c(C)cccc54)cccc23)cc(C)c1Cl , please?
120 nM

Recorded Ki for Cc1cc(OCCCc2c(C(=O)O)n(CCN3CCOCC3)c3c(-c4ccccc4Cn4cc(CCNC(=O)c5ccc(F)cc5)c5ccccc54)cccc23)cc(C)c1Cl , please?
37 nM

Recorded Ki for COc1ccc(OCc2c(-c3cccc4c(CCCOc5cc(C)c(Cl)c(C)c5)c(C(=O)O)[nH]c34)c(C(=O)NCC3CC3)nn2C)cc1 , please?
220 nM

Recorded Ki for Cc1cc(OCCCc2c(C(=O)O)[nH]c3c(-c4c(C(=O)NCC5CC5)nn(C)c4COc4ccc(C=O)cc4)cccc23)cc(C)c1Cl , please?
180 nM

Recorded Ki for COc1ccc(OCc2c(-c3cccc4c(CCCOc5cc(C)c(Cl)c(C)c5)c(C(=O)O)[nH]c34)c(C(=O)NC3CCOCC3)nn2C)cc1 , please?
840 nM

Recorded Ki for COc1ccc(OCc2c(-c3cccc4c(CCCOc5cc(C)c(Cl)c(C)c5)c(C(=O)O)[nH]c34)c(C(=O)N(C)CCNC(=O)OC(C)(C)C)nn2C)cc1 , please?
260 nM

Recorded Ki for COc1ccc(OCc2c(-c3cccc4c(CCCOc5cc(C)c(Cl)c(C)c5)c(C(=O)O)[nH]c34)c(C(=O)NCC3CCOCC3)nn2C)cc1 , please?
490 nM

Recorded Ki for Cc1cc(OCCCc2c(C(=O)O)[nH]c3c(-c4c(C(=O)NCC5CC5)nn(C)c4Cn4cc(CCNC(=O)OC(C)(C)C)c5ccccc54)cccc23)cc(C)c1Cl , please?
150 nM
